Values compiled from patent EP1421935A1.

PROCEDURE SUMMARY: transcorneal penetration of drugs (in vitro corneal permeability)
CONDITION LABEL: rate constant of transfer across excised rabbit cornea, intact epithelium, pH 7.4
READOUT TYPE: kin x 10^3 (hr^-1) Cornea intact

{"columns": ["COMPOUND", "MEASUREMENT UNITS", "NUMERIC VALUE"],
 "data": [
  ["NS(=O)(=O)c1ccc(CNC(=S)Nc2ccccc2C(=O)O)cc1", "hr^-1", 2.9],
  ["NS(=O)(=O)c1ccc(CNC(=S)NC(CS)C(=O)O)cc1 (stereo not drawn)", "hr^-1", 0.4],
  ["NS(=O)(=O)c1ccc(CNC(=S)NC(C(=O)O)C(O)c2ccccc2)cc1 (stereo not drawn)", "hr^-1", 4.9]
]}

###

PROCEDURE SUMMARY: transcorneal penetration of drugs (in vitro corneal permeability)
CONDITION LABEL: rate constant of transfer across excised rabbit cornea, intact epithelium, pH 7.4

{"columns": ["MOLECULE", "kin x 10^3 (hr^-1) Cornea intact"],
 "data": [
  ["NS(=O)(=O)c1ccc(CNC(=S)NC(C(=O)O)c2ccccc2)cc1 (centres unmarked)", 5.6],
  ["CC(=O)/N=c1/sc(S(N)(=O)=O)nn1C [Methazolamide, methazolamide, reference compound]", 1.90],
  ["NS(=O)(=O)c1ccc(CNC(=S)NC(CO)C(=O)O)cc1 (centres unmarked)", 3.3],
  ["NS(=O)(=O)c1ccc(CNC(=S)Nc2cccc(C(=O)O)c2)cc1", 3.0],
  ["CC(=O)Nc1nnc(S(N)(=O)=O)s1 [Acetazolamide, acetazolamide, reference compound]", 0.37],
  ["CCN[C@H]1C[C@H](C)S(=O)(=O)c2sc(S(N)(=O)=O)cc21 [Dorzolamide, dorzolamide, reference compound]", 3.0],
  ["NS(=O)(=O)c1ccc(CNC(=S)Nc2ccc(C(=O)O)cc2)cc1", 3.3],
  ["NS(=O)(=O)c1ccc(CNC(=S)NCCC(=O)NC(Cc2cnc[nH]2)C(=O)O)cc1 (centres unmarked)", 2.8]
]}

###

PROCEDURE SUMMARY: solubility in aqueous buffer (UV of saturated solution)
CONDITION LABEL: 25 °C, pH 7.4, aqueous buffer, thermodynamic from solid
READOUT TYPE: solubility at 3 h (mM)

{"columns": ["MOLECULE", "MEASUREMENT UNITS", "NUMERIC VALUE"],
 "data": [
  ["NS(=O)(=O)c1ccc(CNC(=S)NCCC(=O)NC(Cc2cnc[nH]2)C(=O)O)cc1 (stereo not shown) [B40]", "mM", 57]
]}

###

ASSAY SYSTEM: bCA IV (Bos taurus, UniProt Q95323)
Sequence (Q95323 19-284): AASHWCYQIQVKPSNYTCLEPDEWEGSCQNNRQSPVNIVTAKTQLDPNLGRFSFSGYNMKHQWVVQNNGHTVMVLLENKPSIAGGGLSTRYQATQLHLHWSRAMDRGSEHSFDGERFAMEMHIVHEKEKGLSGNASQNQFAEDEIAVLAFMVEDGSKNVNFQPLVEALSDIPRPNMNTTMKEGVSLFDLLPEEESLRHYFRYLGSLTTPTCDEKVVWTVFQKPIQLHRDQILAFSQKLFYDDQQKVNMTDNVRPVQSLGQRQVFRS
PROCEDURE SUMMARY: CA inhibition, esterase method (4-nitrophenylacetate hydrolysis)
CONDITION LABEL: read-out: KI (nM) bCA IV; From bovine lung microsomes, by the esterase method; pH 7.40, 25°C

{"columns": ["COMPOUND", "Ki (nM)"],
 "data": [
  ["NS(=O)(=O)c1cc(Cl)c(Cl)c(S(N)(=O)=O)c1 [Dichlorophenamide 6, dichlorophenamide, reference compound]", 380]
]}

###

Record set of Ki for target or system hCA II (Homo sapiens, UniProt P00918).

{"columns": ["MOLECULE", "ASSAY SYSTEM", "Ki, nM"],
 "data": [
  ["NS(=O)(=O)c1ccc(CNC(=S)NCCc2c[nH]cn2)cc1", "hCA II (Homo sapiens, UniProt P00918)", 30],
  ["NS(=O)(=O)c1ccc(CNC(=S)NCCC(=O)O)cc1", "hCA II (Homo sapiens, UniProt P00918)", 8],
  ["NS(=O)(=O)c1ccc(CNC(=S)NC(CC(=O)O)C(=O)NC(CC(=O)O)C(=O)NC(CC(=O)O)C(=O)NC(CC(=O)O)C(=O)O)cc1 (stereo not drawn)", "hCA II (Homo sapiens, UniProt P00918)", 9],
  ["NS(=O)(=O)c1ccc(CNC(=S)NC(CCC(=O)O)C(=O)O)cc1 (stereo not drawn)", "hCA II (Homo sapiens, UniProt P00918)", 10],
  ["NC(=O)CC(NC(=S)NCc1ccc(S(N)(=O)=O)cc1)C(=O)O (stereo not drawn)", "hCA II (Homo sapiens, UniProt P00918)", 5],
  ["NS(=O)(=O)c1ccc(CNC(=S)NCCC(=O)NC(Cc2cnc[nH]2)C(=O)O)cc1 (stereo not drawn)", "hCA II (Homo sapiens, UniProt P00918)", 4],
  ["CC(NC(=S)NCc1ccc(S(N)(=O)=O)cc1)C(=O)NC(Cc1ccccc1)C(=O)O (stereo not drawn)", "hCA II (Homo sapiens, UniProt P00918)", 3],
  ["CC(C)C(NC(=S)NCc1ccc(S(N)(=O)=O)cc1)C(=O)O (stereo not drawn)", "hCA II (Homo sapiens, UniProt P00918)", 4],
  ["NS(=O)(=O)c1ccc(CNC(=S)NC(Cc2cnc[nH]2)C(=O)NCC(=O)O)cc1 (stereo not drawn)", "hCA II (Homo sapiens, UniProt P00918)", 1]
]}
